Ref: patent US20120195831A1

Molecular target: human Her3 receptor on cells (T47D, MCF7) (human, UniProt P21860 20-1342)
Sequence (P21860 20-1342 limits assumed, stated change not applied): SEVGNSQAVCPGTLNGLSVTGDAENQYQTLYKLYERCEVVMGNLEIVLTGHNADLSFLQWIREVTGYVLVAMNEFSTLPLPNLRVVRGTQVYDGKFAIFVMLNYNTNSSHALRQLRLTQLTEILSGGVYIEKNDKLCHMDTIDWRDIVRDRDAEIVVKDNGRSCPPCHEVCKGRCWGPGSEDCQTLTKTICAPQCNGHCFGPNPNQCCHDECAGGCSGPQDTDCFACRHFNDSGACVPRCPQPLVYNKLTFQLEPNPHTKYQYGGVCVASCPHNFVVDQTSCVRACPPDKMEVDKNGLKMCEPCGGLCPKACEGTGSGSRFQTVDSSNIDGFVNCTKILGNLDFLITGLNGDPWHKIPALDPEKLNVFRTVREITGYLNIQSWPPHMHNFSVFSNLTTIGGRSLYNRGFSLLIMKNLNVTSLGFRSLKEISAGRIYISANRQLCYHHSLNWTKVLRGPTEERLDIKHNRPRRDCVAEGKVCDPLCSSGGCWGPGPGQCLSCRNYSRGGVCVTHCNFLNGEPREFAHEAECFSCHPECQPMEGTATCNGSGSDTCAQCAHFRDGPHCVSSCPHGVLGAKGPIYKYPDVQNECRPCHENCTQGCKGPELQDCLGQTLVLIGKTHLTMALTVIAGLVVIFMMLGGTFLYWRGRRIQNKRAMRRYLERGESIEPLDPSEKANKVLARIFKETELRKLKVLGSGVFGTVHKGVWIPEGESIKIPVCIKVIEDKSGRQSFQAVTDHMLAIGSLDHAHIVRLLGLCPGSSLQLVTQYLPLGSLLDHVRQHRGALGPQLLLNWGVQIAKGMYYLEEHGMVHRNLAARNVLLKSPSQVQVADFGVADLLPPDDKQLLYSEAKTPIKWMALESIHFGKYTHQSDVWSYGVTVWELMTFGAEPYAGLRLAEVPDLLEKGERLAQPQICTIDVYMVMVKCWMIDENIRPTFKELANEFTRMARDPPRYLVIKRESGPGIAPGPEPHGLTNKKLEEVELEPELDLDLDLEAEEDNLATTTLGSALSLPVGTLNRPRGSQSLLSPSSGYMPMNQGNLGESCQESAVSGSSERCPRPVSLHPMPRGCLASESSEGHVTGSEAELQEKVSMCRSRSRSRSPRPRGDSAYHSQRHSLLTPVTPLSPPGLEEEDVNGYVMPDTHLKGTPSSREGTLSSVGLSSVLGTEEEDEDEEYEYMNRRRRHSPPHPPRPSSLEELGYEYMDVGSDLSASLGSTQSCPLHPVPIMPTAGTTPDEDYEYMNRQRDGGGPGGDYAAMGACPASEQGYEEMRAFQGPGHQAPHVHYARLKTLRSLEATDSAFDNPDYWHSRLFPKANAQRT
Test: cell-based or functional assay
assayReadout: IC50 of pAKT inhibition (MCF7 cells stimulated with rhNRG1-β1, ELISA) (nM)
Report the figure in nM without appending any unit label.

Answered cases to consult:
binder: 588E10 (antibody, V domains shown, Purified mouse IgG from a hybridoma; also called 588E10-HC; 588E10-LC) VH: EVQLQQSGPKLVGPGESVKISCKGSGYTFTDYGMHWVKQSHAKRLEWIGVITIYDGHTNYNQNFKGKAALTVDKSSNTAYLELARMTSEDSAIYYCARGDYDLFWYLDVWGAGTTLTVSS VL: DVVMTQTPLSLTVSLGDQASISCRSSQNIKHSDGNTYLEWYLQKPGQSPKLLIYKVSNRFSGVPDRFSGSGSGTDFTLKISRVEAEDLGVYFCFQGSHVPLTFGAGTKLELKR
measured: 0.14
--
binder: 588F41 (antibody, V domains shown, Purified mouse IgG from a hybridoma; also called 588F41-HC; 588F41-LC) VH: EVQLQQSGPELVKPGASVKMSCKASGYTFTSYVMHWVKQKPGQGLEWLGYINPYNDGTKYNEKFKGMATLTSDKSSSTAYMELISLTSEDSAVYYCAREASYGNPFAYWGQGTLVTVSA VL: DIVMTQSPASLSASVGETVTITCRTSENIYSYLAWFQQKQGNSPQLLVYNTKTLAEGVPSRFSGSGSGTQFSLKINSLQPEDFGNYYCQHHYDTPWTFGGGTKLEIKR
measured: 2.05
--
binder: PO-3H7-E3 (antibody, V domains shown, Purified mouse IgG from a hybridoma; also called PO-3H7-E3-HC; PO-3H7-E3-LC) VH: EVQLQQSGAELVKPGASVKISCKASGYSFTGYYMNWVKQSHGKSLEWIGNINPYYGGSNYNQKFKARATLTVDKSSSTAYMQLNSLTSEDSAVYYCARKGDLYYSMDYWGQGTSVTVSS VL: DIVMTQTPLSLPVSLGDQASISCRSSQSIVHSNGNTYLEWYLQKPGQSPKLLIYKVSNRFSGVPDRFSGSGSGTDFTLKISRVEAEDLGIYYCFQGSHVPPTFGGGTKLELKR
measured: 45.2
--
binder: 588E22 (antibody, V domains shown, Purified mouse IgG from a hybridoma; also called 588E22-HC; 588E22-LC) VH: DVQLQESGPELVGPGESVKISCKGSGYTFTDYGMHWVKQSHAKRLEWIGVITIYDGHTNYNQNFKGKAALTVDKSSNTAYPELARMTSEDSAIYYCARGDYDLFWYLDVWGAGTTVTVSS VL: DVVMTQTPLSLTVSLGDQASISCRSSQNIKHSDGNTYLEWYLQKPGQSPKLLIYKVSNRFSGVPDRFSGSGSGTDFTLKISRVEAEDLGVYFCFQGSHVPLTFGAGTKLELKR
measured: 0.09
--
binder: PO-1C9-C4 (antibody, V domains shown, Purified mouse IgG from a hybridoma; also called PO-1C9-C4-HC; PO-1C9-C4-LC) VH: QVQLQQPGSELVRPGASVKLSCKASGYTFTIFWIHWVKQRPGQGLEWIGNIYPGSGGTNYDEKFKSKATLTVDTFSSTAYMQLSSLTSEDSAVYYCTRWGTGKDYWGQGTTLTVSS VL: DIVLTQSPAIMSASPGEKVTMTCRARSSVSSSYLHWYQQKPGSSPKLWIYSTSNLALGVPARFSGSGSGTSYSLTISSVEAEDAATYYCQQYDSSPFTFGTGTKLEIKR
measured: 9.47

--- query ---
// field: IC50 of pAKT inhibition (MCF7 cells stimulated with rhNRG1-β1, ELISA); key: 588F42 (antibody, V domains shown, Purified mouse IgG from a hybridoma; also called 588F42-HC; 588F42-LC) VH: EVQLQQSGPELVKPGASVKMSCKASGYTFTSYVMHWVKQKPGQGLEWLGYINPYNDGTKYNEKFKGKATLTSDKSSSTAYMELISLTSEDSAVYYCAREASYGNPFAYWGQGTLVTVSA VL: DIVMTQSPASLSASVGETVTITCRTSENIYSYLAWFQQKQGNSPQLLVYNTKTLAEGVPSRFSGSGSGTQFSLKINSLQPEDFGNYYCQHHYDTPWTFGGGTKLEIK ; value = 1.36
